B1: MMP1 (parent)
chain: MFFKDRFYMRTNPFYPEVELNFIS

- Variants of: B1
- Protocol Summary: protein stability index of a GFP-peptide fusion (GPS, HEK-293T) (PSI 1-6); higher = more stable;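 further: lentivirally expressed fusions sorted by FACS into six bins by GFP to DsRed ratio, PSI derived from sequencing read proportions per bin multiplied by bin number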
- Experimental Parameters: c terminus: a fixed tail appended
Measured protein stability index values are reported for all entries that follow.
Quick one: just the number, no unit, thanks!

// worked examples, protein stability index included
{"columns": ["Entry Sequence", "Value Observed"],
 "data": [
  ["MFFKDRFYMRTNGFYPEVELNFIS [P13G]", 2.62],
  ["MFFKDRFYMRTNSFYPEVELNFIS [P13S]", 1.94],
  ["MFFKDRFYMRTNPFYPEYELNFIS [V18Y]", 2.64],
  ["MFFKDRFYMRTNPFYNEVELNFIS [P16N]", 3.95],
  ["MFFKDRFYMYTNPFYPEVELNFIS [R10Y]", 2.63],
  ["MFFKDRFYVRTNPFYPEVELNFIS [M9V]", 2.71]
]}

--- query ---
// sample MFFKDRFYMRCNPFYPEVELNFIS [T11C] , its protein stability index was 3.79
